Each entry below carries its recorded pIC50.
# target or test system: STING (Homo sapiens)
# Sequence (Q86WV6 whole entry): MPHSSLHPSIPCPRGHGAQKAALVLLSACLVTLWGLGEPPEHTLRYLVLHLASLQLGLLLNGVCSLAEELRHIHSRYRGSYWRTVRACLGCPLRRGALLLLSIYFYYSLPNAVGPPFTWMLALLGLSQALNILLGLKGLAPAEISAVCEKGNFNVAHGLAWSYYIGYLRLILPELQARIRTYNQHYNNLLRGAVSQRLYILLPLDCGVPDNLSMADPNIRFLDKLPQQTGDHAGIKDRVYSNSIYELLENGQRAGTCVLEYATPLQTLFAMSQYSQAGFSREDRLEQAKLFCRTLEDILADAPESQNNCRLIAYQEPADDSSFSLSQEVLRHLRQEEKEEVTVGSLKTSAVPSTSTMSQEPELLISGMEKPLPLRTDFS
# assay explanation: STING antagonist activity, cell-based ISG54 promoter-reporter luciferase measurement of IRF activity (THP-1 dual / RAW-ISG cells)
# setup conditions: Antagonist Activity of Exemplary Compounds; cell line and agonist not given; read-out: IC50
pIC50: −log10 of the molar value.

Check out these entries, answers already filled in.
compound	val
COC(=O)CCCCCCCCCCCCCCCn1cnc2nc(Cl)nc(N(C)C)c21 [Compound 24]	5.30 to 6.00
Cc1nc2nc(Cl)nc(S(=O)(=O)C(C)C)c2n1CCCCCCCCCCCCCCCC(=O)OCC1CC1 [Compound 158]	6.00 to 9.00
COC(=O)CCCn1c(C)nc2nc(Cl)nc(S(=O)(=O)C(C)C)c21 [Compound 118]	5.30 to 6.00
COC(=O)CCCCCCCCCCCCCCCn1c(CN2CCOCC2)nc2nc(Cl)nc(Cl)c21 [Compound 154]	6.00 to 9.00
Cc1nc2nc(Cl)nc(SC(C)C)c2n1CCCCCCCCCC[N+]1([O-])CCOCC1 [Compound 129]	< 4.70

[ask] Using the record for Cc1nc2nc(Cl)nc(S(=O)(=O)C(C)C)c2n1CCCCCCCCCCCCCCCC(=O)OC(C)C [Compound 96] , report its pIC50.
[reply] 6.00 to 9.00

[ask] Name the reported pIC50 value associated with the compound COC(=O)CCCCCCN(C)CCCCCCCCn1c(C)nc2nc(Cl)nc(Cl)c21 [Compound 141]
[reply] 6.00 to 9.00

[ask] Given the entry COC(=O)CCCCCOC1CCN(CCCCCCn2c(C)nc3nc(Cl)nc(Cl)c32)CC1 [Compound 156] , report its measured pIC50.
[reply] 5.30 to 6.00

[ask] Report pIC50 for Cc1nc2nc(Cl)nc(S(=O)(=O)C(C)C)c2n1CCCCCCCCCCCCCCCC(=O)N1CCOCC1 [Compound 145] please.
[reply] 6.00 to 9.00

---

# target or test system: STING (Homo sapiens)
# assay explanation: STING antagonist activity, cell-based ISG54 promoter-reporter luciferase measurement of IRF activity (THP-1 dual / RAW-ISG cells)
# setup conditions: Antagonist Activity of Exemplary Compounds; cell line and agonist not given; read-out: IC50
measure name: IC50

Would you please look over these solved cases?
compound	target or test system	IC50
CC(=O)OCCCCCn1cnc2nc(Cl)nc(Cl)c21	STING (Homo sapiens)	1000 to 5000 nM
COC(=O)CCCC(=O)N1CNc2nc(Cl)nc(Cl)c21	STING (Homo sapiens)	> 20000 nM

[ask] Query IC50 on STING (Homo sapiens) for Cc1nc2nc(Cl)nc(Cl)c2n1CCCCCCCCCCCCCCCC(=O)OCC(O)CO (stereo not shown)
[reply] 1000 to 5000 nM

[ask] Form field: IC50 recorded for Cc1nc2nc(Cl)nc(Cl)c2n1CCCCCCCCn1c(C)nc2nc(Cl)nc(Cl)c21 with STING (Homo sapiens) (enter value)
[reply] 1 to 1000 nM

---

# target or test system: UniProtKB Q86WV6
# assay explanation: STING antagonist activity, cell-based ISG54 promoter-reporter luciferase measurement of IRF activity (THP-1 dual / RAW-ISG cells)
# setup conditions: Antagonist Activity of Exemplary Compounds; cell line and agonist not given; read-out: IC50
pIC50: −log10 of the molar value.
measure name: pIC50

Consider the following illustrative entries.
cpd smiles	pIC50
COC(=O)CCCCCCCCCCCCCCCn1c(C(C)C)nc2nc(Cl)nc(Cl)c21	6.00 to 9.00
Cc1nc2nc(Cl)nc(S(=O)(=O)C(C)C)c2n1CCCCCCCCCCCCCCCC(=O)OC[C@@H]1COC(C)(C)O1	6.00 to 9.00
COC(=O)CCCCCCCCCCCCCCCn1cnc2c(NCCS(N)(=O)=O)nc(Cl)nc21	4.70 to 5.00
COC(=O)CCCCCCCCCCCCCCCn1cnc2nccc(Cl)c21	< 4.70
COC(=O)CCCCCn1cnc2nc(Cl)nc(Cl)c21	5.30 to 6.00

[ask] Which measured pIC50 value corresponds to COC(=O)CCCCCCCCCCCCCCCn1cnc2nc(NC(C)=O)nc(Cl)c21 ?
[reply] < 4.70

---

Quick reference for pIC50 among some molecules
# target or test system: STING (Homo sapiens)
# assay explanation: STING antagonist activity, cell-based ISG54 promoter-reporter luciferase measurement of IRF activity (THP-1 dual / RAW-ISG cells)
# setup conditions: Antagonist Activity of Exemplary Compounds; cell line and agonist not given; read-out: IC50
# Method: THP-1 dual cells (InvivoGen) were cultured under 5% CO2 at 37° C. in RPMI containing 10% fetal bovine serum (FBS), 100 IU mL-1 penicillin and 100 μg mL-1 streptomycin. […] 50,000 cells seeded in a 96-well flat bottom white assay plate were treated with different concentrations (10 uM to 0.01 uM) of compounds for 1 h followed by STING induction with either 30 nM SB 11285 or 10 ug/mL 2′-3′ cGAMP. […] IC50 was calculated by plotting in Xlfit. […]
pIC50: −log10 of the molar value.

Solved entries:
molecule	target or test system	measure name	val
COC(=O)CCCCCCCCCCCCCCCn1cnc2c(Cl)nccc21 [Compound 44]	STING (Homo sapiens)	pIC50	< 4.70
OCCOCCOCCOCCn1cnc2c(Cl)nc(Cl)nc21 [Compound 51]	STING (Homo sapiens)	pIC50	< 4.70
COC(=O)CCCCCO[C@@H]1CCN(CCCCCCn2c(C)nc3nc(Cl)nc(S(=O)(=O)C(C)C)c32)C1 [Compound 143]	STING (Homo sapiens)	pIC50	5.30 to 6.00
COC(=O)CCCCCCCCCCCCCCCn1c(O)nc2c(Cl)nc(Cl)nc21 [Compound 53]	STING (Homo sapiens)	pIC50	< 4.70
O=C(O)CCCCCCCCCCCCCCCn1cnc2nc(Cl)nc(O)c21 [Compound 10]	STING (Homo sapiens)	pIC50	< 4.70
Cc1nc2nc(Cl)nc(S(=O)(=O)C(C)C)c2n1CCCCCCCCCCCCCCCC(=O)OC[C@@H](O)CO [Compound 135]	STING (Homo sapiens)	pIC50	6.00 to 9.00
Cc1nc2nc(Cl)nc(S(C)(=O)=O)c2n1CCCCCCCCCCCCCCCC(=O)OC(C)C [Compound 109]	STING (Homo sapiens)	pIC50	6.00 to 9.00
COC(=O)CCCCCCCCCCCCCCCn1cnc2ncncc21 [Compound 3]	STING (Homo sapiens)	pIC50	< 4.70

[ask] Any idea what pIC50 was measured for COC(=O)Cn1c(C)nc2nc(Cl)nc(Cl)c21 [Compound 66] ?
[reply] 5.30 to 6.00

[ask] Which measured pIC50 value corresponds to COC(=O)CCCn1c(C)nc2nc(Cl)nc(Cl)c21 [Compound 116] ?
[reply] 5.00 to 5.30

[ask] Quick check: pIC50 of COC(=O)CCCCCCCCCCCCCCCn1cnc2ccnc(Cl)c21 [Compound 43] ?
[reply] < 4.70

[ask] Record request: pIC50 value, item O=P(O)(O)OCCCCCCCCCCCCCCCCn1cnc2nc(Cl)nc(Cl)c21 [Compound 88]
[reply] < 4.70

[ask] Which pIC50 value belongs to COC(=O)CCCCCCCCCCCCCCCn1c(C)nc2nc(C#N)nc(C#N)c21 [Compound 126] ?
[reply] < 4.70

[ask] // query pIC50 value for entry Cc1nc2nc(Cl)nc(S(=O)(=O)C(C)C)c2n1CCCCCCCCCCCCCCCCN1CCOCC1 [Compound 142]
[reply] 6.00 to 9.00

[ask] Give the measured pIC50 of CNC(=O)CCCCCCCCCCCCCCCn1c(C)nc2nc(Cl)nc(Cl)c21 [Compound 94] .
[reply] 6.00 to 9.00

---

# target or test system: STING (Homo sapiens)
# assay explanation: STING antagonist activity, cell-based ISG54 promoter-reporter luciferase measurement of IRF activity (THP-1 dual / RAW-ISG cells)
# setup conditions: Antagonist Activity of Exemplary Compounds; cell line and agonist not given; read-out: IC50
Listed next: entries and their corresponding IC50.

These solved cases illustrate the format of a correct answer.
compound	target or test system	IC50
Cc1nc2nc(Cl)nc(Cl)c2n1C/C=C/Cn1c(C)nc2nc(Cl)nc(Cl)c21	STING (Homo sapiens)	5000 to 10000 nM
COC(=O)CCCCCCCCCCCCCCCn1c(C)nc2nc(Cl)nc([S+]([O-])C(C)C)c21 (stereo not drawn)	STING (Homo sapiens)	1 to 1000 nM
Cc1nc2nc(Cl)nc(S(=O)(=O)C(C)C)c2n1CCCCCCCCCC[N+]1([O-])CCOCC1	STING (Homo sapiens)	> 20000 nM

[ask] # returns recorded IC50 (system: STING (Homo sapiens)) for Clc1nc(Cl)c2c(ncn2C/C=C/Cn2cnc3nc(Cl)nc(Cl)c32)n1
[reply] 1000 to 5000 nM

[ask] Give recorded IC50 with STING (Homo sapiens) for the following compound: Cc1nc2nc(Cl)nc(Cl)c2n1CCCCn1c(C)nc2nc(Cl)nc(Cl)c21
[reply] > 20000 nM

[ask] Give the reported IC50 for COC(=O)CCCCn1c(C)nc2nc(Cl)nc(S(=O)(=O)C(C)C)c21 (system: STING (Homo sapiens)).
[reply] 1000 to 5000 nM

[ask] Fill in the recorded IC50 for this compound, with STING (Homo sapiens) as test system: Cc1nc2nc(Cl)nc(Cl)c2n1CCCCCCCCCCN1CCOCC1
[reply] 1 to 1000 nM

[ask] Value wanted: IC50 (STING (Homo sapiens)) of entry CCCCCCCCC(C(=O)O)n1cnc2c(Cl)nc(Cl)nc21 (stereo not drawn)
[reply] 5000 to 10000 nM

[ask] STING (Homo sapiens) / IC50 / Cc1nc2nc(Cl)nc(Cl)c2n1CCCCCCCCCCCCn1c(C)nc2nc(Cl)nc(Cl)c21 : value?
[reply] 1 to 1000 nM

[ask] Give recorded IC50 with STING (Homo sapiens) for the following compound: COC(=O)CCCCCCCCCCCCCCn1c(C)nc2nc(Cl)nc(S(=O)(=O)C(C)C)c21
[reply] 1 to 1000 nM

[ask] Could you share what IC50 was measured for Cc1nc2nc(Cl)nc(Cl)c2n1CCCCCCCCCCCCCCCC(=O)OC(C)C , tested on STING (Homo sapiens)?
[reply] 1 to 1000 nM

[ask] Give IC50 (STING (Homo sapiens)) of the following compound: OCCCCCCn1cnc2nc(Cl)nc(Cl)c21
[reply] 1000 to 5000 nM

[ask] For STING (Homo sapiens), provide IC50 of COC(=O)CCCCCCNCCCCCCCCn1c(C)nc2nc(Cl)nc(Cl)c21 please.
[reply] 1 to 1000 nM

[ask] Lab note: need IC50 with STING (Homo sapiens) for entry COC(=O)CCCCCCCCCCCCCCCn1c(C)nc2nc(Cl)nc(OCCN(C)C)c21 , please look it up.
[reply] 1000 to 5000 nM

[ask] // map CCCCCCCCCCCCCCCCn1c(CO)nc2nc(Cl)nc(Cl)c21 to recorded IC50 (system: STING (Homo sapiens))
[reply] 1 to 1000 nM

[ask] Given the entry Cc1nc2nc(Cl)nc(Cl)c2n1CCCCCCCCCCCCCCCC#N , what IC50 was observed with STING (Homo sapiens)?
[reply] 1 to 1000 nM

[ask] Enter reported IC50 observed with STING (Homo sapiens) for Cc1nc2nc(Cl)nc(Cl)c2n1CCCCCCCCCCCCCCCC(=O)OCC(C)O (stereo not drawn)
[reply] 1000 to 5000 nM

[ask] Please provide the recorded IC50 for CCOC(=O)CCCCCCCn1cnc2nc(Cl)nc(Cl)c21 , tested on STING (Homo sapiens).
[reply] 1 to 1000 nM
